- assayTarget: P2Y12 receptor (Homo sapiens)
- Construct: expressed in transfected cells; host or cells: CHO cells (membranes)
- Sequence (Q9H244 whole entry): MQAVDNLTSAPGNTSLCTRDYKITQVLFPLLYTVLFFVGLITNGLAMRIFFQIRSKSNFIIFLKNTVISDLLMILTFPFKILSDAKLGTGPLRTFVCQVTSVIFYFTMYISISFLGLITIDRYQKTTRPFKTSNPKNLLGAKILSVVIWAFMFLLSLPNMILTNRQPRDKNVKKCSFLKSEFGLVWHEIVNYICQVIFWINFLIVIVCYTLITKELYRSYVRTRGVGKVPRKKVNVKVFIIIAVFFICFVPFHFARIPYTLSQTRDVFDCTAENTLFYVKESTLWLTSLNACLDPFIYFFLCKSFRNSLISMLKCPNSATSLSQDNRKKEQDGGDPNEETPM
- assayProcedure: Functional inhibition of 2-Me-S-ADP induced P2Y12 signalling (35S-GTPγS binding, membranes from P2Y12 transfected CHO-cells)
- Format: biochemical
- testContext: 35S-GTPγS, EC80 of 2-methyl-thio-adenosine diphosphate, P2Y12 CHO membranes; value given in each example; read-out: GTPγS(IC50 μM)
readoutName: IC50 (µM)

1. CCCCC(=O)c1cc(C#N)c(N2CCC(C(=O)NS(=O)(=O)Nc3ccc(F)cc3)CC2)nc1CN1CCCC1=O: 0.021
2. CCCCC(=O)c1cc(C#N)c(N2CCC(C(=O)NS(=O)(=O)C(C)c3ccccc3)CC2)nc1CN1CCCC1=O (stereo not shown): 0.033
3. CC(C)C(=O)c1cc(C#N)c(N2CCC(C(=O)NS(=O)(=O)CC3CCCC3)CC2)nc1CN1CCCC1=O: 0.396
4. C=CCCC(=O)c1cc(C#N)c(N2CCC(C(=O)NS(=O)(=O)N(C)c3ccccc3)CC2)nc1CN1CCCC1=O: 0.013
5. CCCC(=O)c1cc(C#N)c(N2CCC(C(=O)NS(=O)(=O)Cc3ccc(C)cc3)CC2)nc1CN1CCCC1=O: 0.009
6. CCCC(=O)c1cc(C#N)c(N2CCC(C(=O)NS(=O)(=O)Cc3ccc(OC)cc3)CC2)nc1CN1CCCC1=O: 0.0097
7. CCCCC(=O)c1cc(Cl)c(N2CCC(C(=O)NS(=O)(=O)Cc3ccc(F)cc3F)CC2)nc1CN1CCCC1=O: 0.226
8. CCCCC(=O)c1cc(C#N)c(N2CCC(C(=O)NS(=O)(=O)N(C)c3ccccc3)CC2)nc1CN1CCCC1=O: 0.017
9. CCCC(=O)c1cc(Cl)c(N2CCC(C(=O)NS(=O)(=O)CC3CCCCC3)CC2)nc1CN1CCCC1=O: 0.231
10. N#Cc1cc(C(=O)CCC(F)(F)F)c(CN2CCCC2=O)nc1N1CCC(C(=O)NS(=O)(=O)CC2CCCC2)CC1: 0.146
11. N#Cc1cc(C(=O)C2CC2)c(CN2CCCCC2=O)nc1N1CCC(C(=O)NS(=O)(=O)CC2CCCC2)CC1: 0.461
12. CCCCC(=O)c1cc(Cl)c(N2CCC(C(=O)NS(=O)(=O)C(C)c3ccccc3)CC2)nc1CN1CCCC1=O (stereo not shown): 0.268
13. CCc1cnc(-c2cc(C#N)c(N3CCC(C(=O)NS(=O)(=O)Cc4ccccc4)CC3)nc2CN2CCCC2=O)o1: 0.021
14. C=CCCC(=O)c1cc(C#N)c(N2CCC(C(=O)NS(=O)(=O)Cc3ccccc3)CC2)nc1CN1CCCC1=O: 0.017
15. CCC(=O)c1cc(C#N)c(N2CCC(C(=O)NS(=O)(=O)Cc3ccccc3)CC2)nc1CN1CCCC1=O: 0.098
16. CCCC(=O)c1cc(C#N)c(N2CCC(C(=O)NS(=O)(=O)Cc3ccc(C)cc3)CC2)nc1CN1CCCCC1=O: 0.021
17. CCCC(=O)c1cc(C#N)c(N2CCC(C(=O)NS(=O)(=O)Nc3ccc(F)cc3)CC2)nc1CN1CCCC1=O: 0.019
18. N#Cc1cc(C(=O)C2CC2)c(CN2CCCC2=O)nc1N1CCC(C(=O)NS(=O)(=O)CC2CCCC2)CC1: 0.058
19. CCCC(=O)c1cc(Cl)c(N2CCC(C(=O)NS(=O)(=O)Cc3ccc(C)cc3)CC2)nc1CN1CCCC1=O: 0.055
20. CCCC(=O)c1cc(C#N)c(N2CCC(C(=O)NS(=O)(=O)Cc3ccc(F)cc3F)CC2)nc1CN1CCCC1=O: 0.0099
21. C=CCCC(=O)c1cc(C#N)c(N2CCC(C(=O)NS(=O)(=O)CC3CCCC3)CC2)nc1CN1CCCC1=O: 0.02
22. CCCC(=O)c1cc(C#N)c(N2CCC(C(=O)N(C)S(=O)(=O)CC3CCCC3)CC2)nc1CN1CCCC1=O: 0.903
23. CCCC(=O)c1cc(Cl)c(N2CCC(C(=O)NS(=O)(=O)Cc3ccccc3)CC2)nc1CN1CCCCC1=O: 0.252
24. CCCCC(=O)c1cc(C#N)c(N2CCC(C(=O)NS(=O)(=O)Cc3ccc(F)cc3F)CC2)nc1CN1CCCC1=O: 0.013
25. C=CCCC(=O)c1cc(Cl)c(N2CCC(C(=O)NS(=O)(=O)N(C)c3ccc(F)cc3)CC2)nc1CN1CCCC1=O: 0.167
26. CCCC(=O)c1cc(Cl)c(N2CCC(C(=O)NS(=O)(=O)Cc3ccccc3)CC2)nc1CN1CCCC1=O: 0.062
27. CCCCC(=O)c1cc(Cl)c(N2CCC(C(=O)NS(=O)(=O)N(C)c3ccc(F)cc3)CC2)nc1CN1CCCC1=O: 0.247
28. CCCCC(=O)c1cc(C#N)c(N2CCC(C(=O)NS(=O)(=O)CC3CCCCC3)CC2)nc1CN1CCCC1=O: 0.023

----------
- assayTarget: P2Y12 receptor (Homo sapiens)
- Construct: expressed in transfected cells; host or cells: CHO cells (membranes)
- assayProcedure: Functional inhibition of 2-Me-S-ADP induced P2Y12 signalling (35S-GTPγS binding, membranes from P2Y12 transfected CHO-cells)
- Assay type: biochemical
- testContext: 35S-GTPγS, EC80 of 2-methyl-thio-adenosine diphosphate, P2Y12 CHO membranes; value given in each example; read-out: GTPγS(IC50 μM)
Entries annotated with measured IC50
readoutName: IC50 (µM)

1) CCc1cnc(-c2cc(Cl)c(N3CCC(C(=O)NS(=O)(=O)N(C)c4ccc(F)cc4)CC3)nc2CN2CCCC2=O)o1: 0.45
2) CCCCC(=O)c1cc(C#N)c(N2CCC(C(=O)NS(=O)(=O)CC3CCCC3)CC2)nc1CN1CCCC1=O: 0.029
3) CCCC(=O)c1cc(Cl)c(N2CCC(C(=O)N(C)S(=O)(=O)N(C)c3ccc(F)cc3)CC2)nc1CN1CCCC1=O: 3.67
4) CN(c1ccc(F)cc1)S(=O)(=O)NC(=O)C1CCN(c2nc(CN3CCCC3=O)c(C(=O)CCC(F)(F)F)cc2C#N)CC1: 0.05

----------
Catalogue of log10 of IC50 readings, one per entry.
- assayTarget: P2Y12 receptor (Homo sapiens)
- Construct: expressed in transfected cells; host or cells: CHO cells (membranes)
- assayProcedure: Functional inhibition of 2-Me-S-ADP induced P2Y12 signalling (35S-GTPγS binding, membranes from P2Y12 transfected CHO-cells)
- Format: biochemical
- testContext: 35S-GTPγS, EC80 of 2-methyl-thio-adenosine diphosphate, P2Y12 CHO membranes; value given in each example; read-out: GTPγS(IC50 μM)
readoutName: log10 of IC50 (log10 of the value in µM)

1. CCc1cnc(-c2cc(C#N)c(N3CCC(C(=O)NS(=O)(=O)N(C)c4ccc(F)cc4)CC3)nc2CN2CCCC2=O)o1: -1.52
2. C=CCCC(=O)c1cc(Cl)c(N2CCC(C(=O)NS(=O)(=O)Cc3ccccc3)CC2)nc1CN1CCCC1=O: -1.16
3. CCCCC(=O)c1cc(Cl)c(N2CCC(C(=O)NS(=O)(=O)Cc3ccc(Cl)cc3)CC2)nc1CN1CCCC1=O: -0.88
4. CN(c1ccccc1)S(=O)(=O)NC(=O)C1CCN(c2nc(CN3CCCCC3=O)c(C(=O)C3CC3)cc2C#N)CC1: -0.82
5. CN(c1ccccc1)S(=O)(=O)NC(=O)C1CCN(c2nc(CN3CCCC3=O)c(C(=O)C3CC3)cc2C#N)CC1: -1.38
6. CCCC(=O)c1cc(C#N)c(N2CCC(C(=O)NS(=O)(=O)N(C)c3ccccc3)CC2)nc1CN1CCCC1=O: -1.92
7. CC(C)C(=O)c1cc(C#N)c(N2CCC(C(=O)NS(=O)(=O)Cc3ccccc3)CC2)nc1CN1CCCC1=O: -0.97
8. C=CCCC(=O)c1cc(C#N)c(N2CCC(C(=O)NS(=O)(=O)N(C)c3ccc(F)cc3)CC2)nc1CN1CCCC1=O: -1.66
9. CCCCC(=O)c1cc(Cl)c(N2CCC(C(=O)NS(=O)(=O)CC3CCCC3)CC2)nc1CN1CCCC1=O: -0.03
10. N#Cc1cc(C(=O)CCC(F)(F)F)c(CN2CCCC2=O)nc1N1CCC(C(=O)NS(=O)(=O)Cc2ccccc2)CC1: -1.08
11. CN(c1ccc(F)cc1)S(=O)(=O)NC(=O)C1CCN(c2nc(CN3CCCC3=O)c(C(=O)C3CC3)cc2C#N)CC1: -1.59
12. N#Cc1cc(C(=O)C2CC2)c(CN2CCCC2=O)nc1N1CCC(C(=O)NS(=O)(=O)CC2CCC2)CC1: -0.37
13. CCCCC(=O)c1cc(Cl)c(N2CCC(C(=O)NS(=O)(=O)Cc3ccccc3)CC2)nc1CN1CCCC1=O: -1.10
14. CC(=O)c1cc(C#N)c(N2CCC(C(=O)NS(=O)(=O)Cc3ccccc3)CC2)nc1CN1CCCCC1=O: 0.22
15. CCC(=O)c1cc(C#N)c(N2CCC(C(=O)NS(=O)(=O)Cc3ccc(C)cc3)CC2)nc1CN1CCCC1=O: -1.43
16. CCCC(=O)c1cc(Cl)c(N2CCC(C(=O)NS(=O)(=O)N(C)c3ccc(F)cc3)CC2)nc1CN1CCCC1=O: -0.96
17. CCCC(=O)c1cc(C#N)c(N2CCC(C(=O)NS(=O)(=O)CC3CCCC3)CC2)nc1CN1CCCC1=O: -1.55
18. CCCCC(=O)c1cc(C#N)c(N2CCC(C(=O)NS(=O)(=O)N(C)c3ccc(F)cc3)CC2)nc1CN1CCCC1=O: -1.64
19. CCCC(=O)c1cc(C#N)c(N2CCC(C(=O)NS(=O)(=O)CC3CCCCC3)CC2)nc1CN1CCCC1=O: -1.85
20. CCc1cnc(-c2cc(Cl)c(N3CCC(C(=O)NS(=O)(=O)Cc4ccccc4)CC3)nc2CN2CCCC2=O)o1: -0.77
21. C=CCCC(=O)c1cc(C#N)c(N2CCC(C(=O)NS(=O)(=O)Cc3ccc(F)cc3F)CC2)nc1CN1CCCC1=O: -2.05
22. N#Cc1cc(C(=O)CCC(F)(F)F)c(CN2CCCC2=O)nc1N1CCC(C(=O)NS(=O)(=O)Cc2ccc(F)cc2F)CC1: -1.80
23. C=CCCC(=O)c1cc(C#N)c(N2CCC(C(=O)NS(=O)(=O)Cc3ccc(C)cc3)CC2)nc1CN1CCCC1=O: -2.09
24. CCCC(=O)c1cc(Cl)c(N2CCC(C(=O)NS(=O)(=O)N(C)c3ccc(F)cc3)CC2)nc1CN1CCCCC1=O: -0.35
25. CCC(=O)c1cc(C#N)c(N2CCC(C(=O)NS(=O)(=O)CC3CCCC3)CC2)nc1CN1CCCC1=O: -0.48
26. CC(=O)c1cc(C#N)c(N2CCC(C(=O)NS(=O)(=O)Cc3ccccc3)CC2)nc1CN1CCCC1=O: -0.55
27. CCCCC(=O)c1cc(C#N)c(N2CCC(C(=O)NS(=O)(=O)Cc3ccc(C(C)C)cc3)CC2)nc1CN1CCCC1=O: -1.51
28. CCCC(=O)c1cc(C#N)c(N2CCC(C(=O)NS(=O)(=O)Cc3ccccc3)CC2)nc1CN1CCCC1=O: -1.66
29. CCCCC(=O)c1cc(C#N)c(N2CCC(C(=O)NS(=O)(=O)Cc3ccc(C)cc3)CC2)nc1CN1CCCC1=O: -2.07
